System: Thrombozytenaggregation in plättchenreichem Plasma
Experiment: Collagen-induced platelet aggregation (method of BORN and GROSS) in platelet-rich plasma
Assay type: cell-based, Versuchspersonen
Conditions: 10 min, plasma incubated 10 min with substance at 37°C, 50% change of optical density
recordedEndpoint: EC50 (µM)
Return type: number; implicit unit µM.

Consider the molecule shown here: O=C1CCC(c2ccc(CCNS(=O)(=O)c3ccccc3)cc2)=NN1 What is its recorded EC50?
3.3

Consider the molecule shown here: O=C(O)CCC(=O)c1ccc(CCNS(=O)(=O)c2ccccc2)cc1 What is its recorded EC50?
3

Consider the molecule shown here: Cc1ccc(S(=O)(=O)NCCc2ccc(C3=NNC(=O)CC3C)cc2)cc1 (stereo not drawn) What is its recorded EC50?
2.4

Consider the molecule shown here: O=C(O)CCC(=O)c1ccc(CCNS(=O)(=O)c2ccc(Cl)cc2)cc1 What is its recorded EC50?
4

Consider the molecule shown here: O=C1CCC(c2ccc(OCCNS(=O)(=O)c3ccccc3)cc2)=NN1 What is its recorded EC50?
3
